Just for reference, ChEMBL document CHEMBL4190234 is where these values come from.

test system: MDA-MB-468; assay: Growth inhibition of human MDA-MB-468 cells at 10 uM incubated for 48 hrs by sulforhodamine B assay relative to control; type: functional; conditions: MDA-MB-468, 48 h, read-out: GI
Recorded inhibition of growth at 10 µM, one value per entry.

Task: What is its inhibition of growth at 10 µM for MDA-MB-468? Entry: CC(=O)C1=C(C)NC(SCc2nnc(-c3ccc(C)cc3)o2)=NC1c1ccc(F)cc1 (stereo not drawn)
Result: < 10%

Task: Note, next up: CCOC(=O)C1=C(C)NC(SCc2nnc(-c3ccc(Cl)cc3)o2)=NC1c1ccc(Cl)cc1Cl (stereo not drawn)
Result: 11.6%

Task: Note, next up: CCOC(=O)C1=C(C)NC(SCc2nnc(-c3ccc(Cl)cc3)o2)=NC1c1ccc(OC)cc1 (stereo not drawn)
Result: < 10%

Task: Note, next up: CCOC(=O)C1=C(C)NC(SCc2nnc(-c3ccc(Cl)cc3)o2)=NC1c1cccc(Cl)c1 (stereo not drawn)
Result: < 10%

Task: Note, next up: CCOC(=O)C1=C(C)NC(SCc2nnc(-c3ccc(Cl)cc3)o2)=NC1c1ccc(Br)cc1 (stereo not drawn)
Result: 41.8%

Task: Note, next up: COc1ccc(-c2nnc(CSC3=NC(c4ccc(F)cc4)C(C(C)=O)=C(C)N3)o2)cc1 (stereo not drawn)
Result: < 10%

Task: Note, next up: CCOC(=O)C1=C(C)NC(SCc2nnc(-c3ccc(Cl)cc3)o2)=NC1c1ccc(F)cc1 (stereo not drawn)
Result: 17.1%

Task: Note, next up: CCOC(=O)C1=C(C)NC(SCc2nnc(-c3ccc(OC)cc3)o2)=NC1c1ccc(F)cc1 (stereo not drawn)
Result: < 10%

Task: Note, next up: CCOC(=O)C1=C(C)NC(SCc2nnc(-c3ccc(Cl)cc3)o2)=NC1c1ccc(Cl)cc1 (stereo not drawn)
Result: 51%

Task: Note, next up: CC(=O)C1=C(C)NC(SCc2nnc(-c3ccc(Cl)cc3)o2)=NC1c1ccc(Cl)cc1 (stereo not drawn)
Result: 10.8%
